Target: Sonic hedgehog protein (Mus musculus) (UniProt Q62226)
Assay: Ratio of compound IC50 to cyclopamine IC50 for inhibition of SHH in mouse Shh-Light2 cells
Assay type: functional, cell-based
Conditions: Shh Light II
Classification field: enter condition met for Ratio IC50 values not below 7, condition not met for values below it.

O=C(Nc1ccc(Cl)c(-c2nc3ccccc3[nH]2)c1)c1ccccc1 | condition met
COc1ccc(C(=O)Nc2ccc(Cl)c(-c3nc4ccccc4[nH]3)c2)cc1 | condition met
COc1ccccc1C(=O)Nc1ccc(Cl)c(-c2nc3ccccc3[nH]2)c1 | condition not met
O=C(Nc1ccc(Cl)c(-c2nc3ccccc3[nH]2)c1)c1ccc(Cl)cc1 | condition not met
O=C(Nc1ccc(Cl)c(-c2nc3ccccc3[nH]2)c1)c1ccc(F)cc1 | condition not met
CC1=C2C[C@H]3[C@@H](CC=C4C[C@@H](O)CC[C@@]43C)[C@@H]2CC[C@]12O[C@@H]1C[C@H](C)CN[C@H]1[C@H]2C [CYCLOPAMINE] | condition met
O=C(Nc1ccc(Cl)c(-c2nc3ccccc3[nH]2)c1)c1cccc(C(F)(F)F)c1 | condition met
CCOc1cc(C(=O)Nc2cccc(-c3nc4ccccc4[nH]3)c2)cc(OCC)c1OCC | condition not met

meta.source: ChEMBL document CHEMBL1155261
